# test_protocol: Terminal half life in Sprague-Dawley rat at 5 mg/kg, iv administered as single dose
# Type: ADME, organism-based
# particulars: in vivo, read-out: beta t1/2 (converted)
test_readout: half-life (min)
// return numeric value only (unit: min, not printed)

Name the recorded half-life of the item `CCc1c(-c2ccc(N3C[C@@H]4[C@@H](N)[C@@H]4C3)cc2)[nH]c(=O)c(C(=O)O)c1O` in your answer.
174

###

# Test system: Klebsiella pneumoniae
# test_protocol: Antibacterial activity against Klebsiella pneumoniae ATCC 35657 by CLSI M100-S17 protocol based method
# Format: functional
Friendly reminder: MIC below 6 µg/mL is yes, at or above is no.

Bench note: check whether CCc1c(-c2ccc(N3CCC(C4(N)CC4)C3)cc2)[nH]c(=O)c(C(=O)O)c1O (centres undefined) shows MIC below 6 µg/mL
yes

Bench note: check whether `CCc1c(-c2ccc(N3C[C@@H]4[C@H](C3)[C@H]4NC)cc2)[nH]c(=O)c(C(=O)O)c1O` shows MIC below 6 µg/mL
yes

Bench note: check whether CCc1c(-c2ccc(N3CCC(C4(N(C)C)CC4)C3)cc2)[nH]c(=O)c(C(=O)O)c1O (centres undefined) shows MIC below 6 µg/mL
no

Bench note: check whether CCc1c(-c2ccc(N3CCC(N(C)C)C3)cc2)[nH]c(=O)c(C(=O)O)c1O (centres undefined) shows MIC below 6 µg/mL
yes

Bench note: check whether `CCc1c(-c2ccc(N(C)C)cc2)[nH]c(=O)c(C(=O)O)c1O` shows MIC below 6 µg/mL
yes

Bench note: check whether CCc1c(-c2ccc(N3CCC(CNC)C3)cc2)[nH]c(=O)c(C(=O)O)c1O (centres undefined) shows MIC below 6 µg/mL
no

Bench note: check whether CCc1c(-c2ccc(N3CCC(C4(N)CCC4)C3)cc2)[nH]c(=O)c(C(=O)O)c1O (centres undefined) shows MIC below 6 µg/mL
yes

Bench note: check whether CCc1c(-c2ccc(N3CCC(C(C)(C)N)C3)cc2)[nH]c(=O)c(C(=O)O)c1O (centres undefined) shows MIC below 6 µg/mL
no

Bench note: check whether CCc1c(-c2ccc(N3CC4CCCNC4C3)cc2)[nH]c(=O)c(C(=O)O)c1O (centres undefined) shows MIC below 6 µg/mL
yes

###

Record form. Attribute: bioavailability. Fill in for each entry.
# test_protocol: Oral bioavailability in Sprague-Dawley rat
# Type: ADME, organism-based
# particulars: in vivo
// return numeric value only (unit: %, not printed)

Name the recorded bioavailability of the item `CCc1c(-c2ccc(N3C[C@@H]4[C@@H](N)[C@@H]4C3)cc2)[nH]c(=O)c(C(=O)O)c1O` in your answer.
17

Name the recorded bioavailability of the item CCc1c(-c2ccc(N3CC4CCCNC4C3)cc2)[nH]c(=O)c(C(=O)O)c1O (configuration not stated) in your answer.
8

###

# test_protocol: Terminal half life in Sprague-Dawley rat at 10 mg/kg, iv administered as single dose
# Format: ADME, organism-based
# particulars: in vivo, read-out: beta t1/2 (converted)
test_readout: half-life (h)
// return numeric value only (unit: h, not printed)

Name the recorded half-life of the item CCc1c(-c2ccc(N3CC4CCCNC4C3)cc2)[nH]c(=O)c(C(=O)O)c1O (stereo unspecified) in your answer.
3.9

###

Record form. Attribute: pIC50. Fill in for each entry.
# test_protocol: Inhibition of DNA gyrase-A in Escherichia coli ATCC 25922 using relaxed pBR322 DNA as substrate after 30 mins by ethidium bromide staining based agarose gel electrophoresis method
The scale used: pIC50 is minus the common logarithm of the concentration in molar units.

Name the recorded pIC50 of the item `CCc1c(-c2ccc(N3C[C@@H]4[C@@H](N)[C@@H]4C3)cc2)[nH]c(=O)c(C(=O)O)c1O` in your answer.
6.11

Name the recorded pIC50 of the item `CCc1c(-c2ccc(N(C)C)cc2)[nH]c(=O)c(C(=O)O)c1O` in your answer.
4.96
